I'd appreciate it if you could supply Activity values for the items below.
system: Cannabinoid receptor 2 (Homo sapiens) (UniProt P34972)
Sequence (P34972 whole entry): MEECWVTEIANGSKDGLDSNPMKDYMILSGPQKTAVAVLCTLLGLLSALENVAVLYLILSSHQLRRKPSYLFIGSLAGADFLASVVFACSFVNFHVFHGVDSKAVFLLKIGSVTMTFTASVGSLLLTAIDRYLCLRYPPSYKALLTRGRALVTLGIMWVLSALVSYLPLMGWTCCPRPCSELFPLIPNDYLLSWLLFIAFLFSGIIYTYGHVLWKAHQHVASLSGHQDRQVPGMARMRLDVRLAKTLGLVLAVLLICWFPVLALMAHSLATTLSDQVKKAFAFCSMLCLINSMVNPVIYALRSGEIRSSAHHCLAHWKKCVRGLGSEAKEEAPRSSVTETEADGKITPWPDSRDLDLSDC
protocolNotes: Displacement of [3H]CP-55940 from human CB2 receptor expressed in CHO cells at 10 uM
Type: cell-based

GET /value?item= O=C1C(c2ccc(Cl)cc2)N(c2ccc(Cl)cc2)C(=O)N1c1ccc(Cl)cc1 (stereo not given) &field=Activity returns 28.1%

The measured Activity associated with CCCCCC(=O)N1C(=O)C(c2ccccc2)N(c2ccccc2)C1=O (stereo not given) reads < 10%

GET /value?item= O=C1C(c2ccccc2)N(c2cccc(I)c2)C(=S)N1c1cccc(I)c1 (stereo not given) &field=Activity returns < 15%

// recorded Activity for O=C1C(c2ccccc2)N(c2ccccc2)C(=O)N1c1ccccc1 (stereo not given) : < 10%

Activity reading for CCCCCN1C(=O)C(c2ccccc2)N(c2ccccc2)C1=O (stereo not given) : < 10%

Activity reading for O=C1C(c2ccccc2)N(c2ccc(Br)cc2)C(=S)N1c1ccc(Br)cc1 (stereo not given) : < 15%

// sample O=C(c1ccccc1)N1C(=O)C(c2ccccc2)N(c2ccccc2)C1=O (stereo not given) , its Activity was < 10%

Activity for O=C1C(c2ccccc2)N(c2ccc(Cl)cc2)C(=O)N1c1ccc(Cl)cc1 (stereo not given) is 21.6%

GET /value?item= O=C1C(c2ccc(Br)cc2)N(c2ccc(Cl)cc2)C(=O)N1c1ccc(Cl)cc1 (stereo not given) &field=Activity returns < 20%

What the record says about O=C1C(c2ccc(Br)cc2)N(c2ccccc2)C(=S)N1c1ccccc1 (stereo not given) : Activity is < 10%

Where these numbers come from: ChEMBL document CHEMBL1148623
